As shown below, each of these binders has a reported Mean value.
# EXPERIMENTAL_SYSTEM: T1, GPC3 expressed on hepatoma cell line HepG2 (human, UniProt P51654 25-554)
# T1 construct: whole, on cells; also called GPC3-expressing tumor cells (HepG2); cells expressing GPC3
# T1 sequence (P51654 25-554 limits assumed): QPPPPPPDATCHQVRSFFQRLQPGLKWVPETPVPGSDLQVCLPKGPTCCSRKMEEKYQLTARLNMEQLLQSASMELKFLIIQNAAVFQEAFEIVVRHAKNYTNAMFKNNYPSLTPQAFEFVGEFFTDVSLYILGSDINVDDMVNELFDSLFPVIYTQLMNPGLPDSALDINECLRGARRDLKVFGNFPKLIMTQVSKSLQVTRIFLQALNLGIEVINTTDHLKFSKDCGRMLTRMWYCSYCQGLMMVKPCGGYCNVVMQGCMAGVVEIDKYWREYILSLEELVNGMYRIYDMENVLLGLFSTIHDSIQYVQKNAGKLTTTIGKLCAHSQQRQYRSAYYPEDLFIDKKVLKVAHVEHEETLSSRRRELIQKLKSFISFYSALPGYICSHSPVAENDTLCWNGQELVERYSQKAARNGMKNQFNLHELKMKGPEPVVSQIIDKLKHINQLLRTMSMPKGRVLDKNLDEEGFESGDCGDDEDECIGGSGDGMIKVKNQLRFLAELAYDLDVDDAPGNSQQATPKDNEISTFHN
# ASSAY_EXPLANATION: flow cytometry on HepG2 cells, 1 µg antibody, PE anti-mouse IgG secondary; mean fluorescence
MEASURED_PARAMETER: Mean

• 8B2 antibody (antibody, V domains shown, Mouse hybridoma monoclonal antibody, detected with anti-mouse IgG) VH: QVQLQQPGAELVKPGASVKMSCKASGYTFTSYNMHWVKQTPGQGLEWIGAIYPGNGYTSYNQKFKGKATLTADKSSSTAYMQLSSLTSEDSAVYYCARGGGPFAYWGQGTLVTVSA VL: DIVMTQSHKFMSTSVGDRVSITCKASQDVGTAVAWYQQKPGQSPKLLIYWPSTRHTGVPDRFTGSGSGTDFTLTISNVQSEDLADYFCQQYSSYPFTFGSGTKLEIK = 40000
• 7C6 antibody (antibody, V domains shown, Mouse hybridoma monoclonal antibody, detected with anti-mouse IgG) VH: QVQLQQPGAELVKPGASVKLSCKASGYTFTTYYMYWVKQRPGQGLEWIGEINPSNGGTNFNEKFKSKATLTVDKSSSTAYMQLSSLTSEDSAVYYCTTFAYWGQGTLVTVSA VL: DIVMTQSPSSLSASLGGKVTITCKASQDINKYIVWYQHKPGKGPRLLIHYTSILQPGIPSRFSGSGSGRDYSFSISNLEPEDIATYYCLQYDNLWTFGGGTKLEIK = 81400
• 10E9 antibody (antibody, V domains shown, Mouse hybridoma monoclonal antibody, detected with anti-mouse IgG; Used as hybridoma culture supernatant in the ELISA) VH: EVQLEESGTVLARPGASVKMSCKASGYTFTSYWMHWIKQRPGQGLEWIGAIYPGNSDTSYNQKFKGKAKLTAVTSTSTAYMELSSLTNEDSAVYYCTRGEYDYVLAYWGQGTLVTVSA VL: DIVMTQSPATLSVTPGDSVSLSCRASQSISNNLHWYQQKSHESPRLLIKFASQSISGIPSRFSGSGSGTDFTLSINSVETEDFGMYFCQQSNSWPHMYTFGGGTKLEIK = 33000
